Provide the recorded IC50 for the entries that follow.
- System: rat cortical neurons
- TEST_DETAILS: Hypoxia-induced apoptosis of rat cortical neurons
- Assay type: cell-based, Wistar rat
- CONDITIONS: Cortical neurone, 95% N2/5% CO2, Cell Death Detection ELISA (DNA fragmentation)

>>> result("CC[C@@H](C(=O)N[C@@H](CC(=O)O)C(=O)COc1c(F)c(F)cc(F)c1F)n1cccc(NC(=O)C(C)C)c1=O [Compound 5]")
"< 1000 nM"

Hey, can you go through the list below and give me IC50 for every item?
1. CCCS(=O)(=O)Nc1cccn([C@@H](CC)C(=O)N[C@@H](CC(=O)O)C(=O)COc2c(F)c(F)cc(F)c2F)c1=O [Compound 19]
2. CC[C@@H](C(=O)NC(CC(=O)O)C(=O)CF)n1cc(C)cc(NC(=O)Cc2ccccc2)c1=O (stereo partly shown) [Compound 37]
3. CC[C@@H](C(=O)N[C@@H](CC(=O)O)C(=O)COc1c(F)c(F)cc(F)c1F)n1cccc(NS(=O)(=O)C(C)C)c1=O [Compound 20]

Result string:
1: 1000 to 10000 nM; 2: 1000 to 10000 nM; 3: < 1000 nM
